- Test system: 70S ribosome (Escherichia coli MRE600)
- experiment-summary: filter binding
- measurement-context: 56% bound; Filter binding: 50 nM 32P-RNA in TAKM5 buffer (composition not given), 15 min at 37 C, nitrocellulose filtration; fluorescence titrations: pyrene, ex 341 nm …
property: Kd (nM)

• GGAUACGCACAAUAAGGCUAUUGUACGUAUGCAAAUUAAUAAUAAAGGAGAGUAGCAAUGUCAUUCGAAUUACCUGCACUACCAUAUGCUAAAGAUGCUCUGGCACCGCACAUUUCUGCGG [sodB 5' UTR RNA] = 47

---

- Test system: 70S ribosome (Escherichia coli MRE600)
- experiment-summary: filter binding
- measurement-context: Filter binding: 50 nM 32P-RNA in TAKM5 buffer (composition not given), 15 min at 37 C, nitrocellulose filtration; fluorescence titrations: pyrene, ex 341 nm …
pKd: −log10 of the molar value.
property: pKd

* AAAGCAAAAAUGUGAUCUUGCUUGUAAAUACAAUUUUGAGAGGUUAAUAAAUUACAAGUAGUGCUAUUUUUGUAUUUAGGUUAGCUAUUUAGCUUUACGUUCCAGGAUGCCUAGUGGCAGCCCGUGAAUAUCCAGGAAGCCCUCUCUGCGGUUUUUCAGAUUAGGUAGUCGAAAAACCUAAGAAAUUUACCUGCUACAUUUCAAGAUAAA [CrPV IGR IRES PK3_K/O] | 7.05
* GAGCGGUUUCUGGAAUACUAUAUGUAAGUAUAGUGUUCUGGAGGCAUCAUUCUAUGGUUACCCAUCAUUAGAGGAAAUUUCCAAUAAACUCUGGUGUAAGGCUUAGAGUGAUGGUCGAGGUGCCCUAUUUAGGGUGAGGAGCCUCGGUGGCAGCCCCACCAAAUCCUCUUAACCAUAGGAACAGCUGUACUGGGCAGUUACAGCAGUCGUAUGGUAACACAUGCGGCGUUCCGAAAUACCAUGCCUGGCGAUUCACAACAAGAA [IAPV IGR IRES PK2_K/O] | 7.23
* GAGCGGUUUCUGGAAUACUAUAUGUAAGUAUAGUGUUCUGGAGGCAUCAUUCUAUGGUUACCCAUCAUUAGAGGAAAUUUCCAAUAAACUCUGGUGUAAGGCUUAGAGUGAUGGUCGAGGUGCCCUAUUUAGGGUGAGGAGCCUCGGUGGCAGCCCCUGGAAAUCCUCUAUUGGAUAGGAACAGCUGUACUGGGCAGUUACAGCAGUCGUAUGGUAACACAUGCGGCGUUCCGAAAUACCAUGGGUGGCGAUUCACAACAAGAA [IAPV IGR IRES PK1+3_K/O] | 7.19

---

- Test system: 30S ribosomal subunit (Escherichia coli MRE600)
- experiment-summary: filter binding
- measurement-context: Filter binding: 50 nM 32P-RNA in TAKM5 buffer (composition not given), 15 min at 37 C, nitrocellulose filtration; fluorescence titrations: pyrene, ex 341 nm …
Label YES when Kd < 70 nM; otherwise NO.

* GAGCGGUUUCUGGAAUACUAUAUGUAAGUAUAGUGUUCUGGAGGCAUCAUUCUAUGGUUACCCAUCAUUAGAGGAAAUUUCCAAUAAACUCUGGUGUAAGGCUUAGAGUGAUGGUCGAGGUGCCCUAUUUAGGGUGAGGAGCCUCGGUGGCAGCCCCUGGAAAUCCUCUUAACCAUAGGAACAGCUGUACUGGGCAGUUACAGCAGUCGUAUGGUAACACAUGCGGCGUUCCGAAAUACCAUGGGUGGCGAUUCACAACAAGAA [IAPV IGR IRES PK1+2+3_K/O] | NO
* GAGCGGUUUCUGGAAUACUAUAUGUAAGUAUAGUGUUCUGGAGGCAUCAUUCUAUGGUUACCCAUCAUUAGAGGAAAUUUCCAAUAAACUCUGGUGUAAGGCUUAGAGUGAUGGUCGAGGUGCCCUAUUUAGGGUGAGGAGCCUCGGUGGCAGCCCCACCAAAUCCUCUUAACCAUAGGAACAGCUGUACUGGGCAGUUACAGCAGUCGUAUGGUAACACAUGCGGCGUUCCGAAAUACCAUGCCUGGCGAUUCACAACAAGAA [IAPV IGR IRES PK2_K/O] | NO
* AAAGCAAAAAUGUGAUCUUGCUUGUAAAUACAAUUUUGAGAGGUUAAUAAAUUACAAGUAGUGCUAUUUUUGUAUUUAGGUUAGCUAUUUAGCUUUACGUUCCAGGAUGCCUAGUGGCAGCCGGUGAAUAUCCAGGAAGCCCUCUCUGCGGUUUUUCAGAUUAGGUAGUCGAAAAACCUAAGAAAUUUAGGUGCUACAUUUCAAGAUAAA [CrPV IGR IRES PK1+3_K/O] | YES
* AAAGCAAAAAUGUGAUCUUGCUUGUAAAUACAAUUUUGAGAGGUUAAUAAAUUACAAGUAGUGCUAUUUUUGUAUUUAGGUUAGCUAUUUAGCUUUACGUUCCAGGAUGCCUAGUGGCAGCCCCACAAUAUCCAGGAAGCCCUCUCUGCGGUUUUUCAGAUUAGGUAGUCGAAAAACCUAAGAAAUUUAGGUGCUACAUUUCAAGAUAAA [CrPV IGR IRES PK1_K/O] | YES
* AAAGCAAAAAUGUGAUCUUGCUUGUAAAUACAAUUUUGAGAGGUUAAUAAAUUACAAGUAGUGCUAUUUUUGUAUUUAGGUUAGCUAUUUAGCUUUACGUUCCAGGAUGCCUAGUGGCAGCCCCACAAUAUCCAGGAAGCGGAGAGUGCGGUUUUUCAGAUUAGGUAGUCGAAAAACCUAAGAAAUUUACCUGCUACAUUUCAAGAUAAA [CrPV IGR IRES PK2_K/O] | NO
* GAGCGGUUUCUGGAAUACUAUAUGUAAGUAUAGUGUUCUGGAGGCAUCAUUCUAUGGUUACCCAUCAUUAGAGGAAAUUUCCAAUAAACUCUGGUGUAAGGCUUAGAGUGAUGGUCGAGGUGCCCUAUUUAGGGUGAGGAGCCUCGGUGGCAGCCCCUGGAAAUCCUCUAUUGGAUAGGAACAGCUGUACUGGGCAGUUACAGCAGUCGUAUGGUAACACAUGCGGCGUUCCGAAAUACCAUGGGUGGCGAUUCACAACAAGAA [IAPV IGR IRES PK1+3_K/O] | NO
* GAGCGGUUUCUGGAAUACUAUAUGUAAGUAUAGUGUUCUGGAGGCAUCAUUCUAUGGUUACCCAUCAUUAGAGGAAAUUUCCAAUAAACUCUGGUGUAAGGCUUAGAGUGAUGGUCGAGGUGCCCUAUUUAGGGUGAGGAGCCUCGGUGGCAGCCCCACCAAAUCCUCUAUUGGAUAGGAACAGCUGUACUGGGCAGUUACAGCAGUCGUAUGGUAACACAUGCGGCGUUCCGAAAUACCAUGGGUGGCGAUUCACAACAAGAA [IAPV IGR IRES PK1_K/O] | NO
* AAAGCAAAAAUGUGAUCUUGCUUGUAAAUACAAUUUUGAGAGGUUAAUAAAUUACAAGUAGUGCUAUUUUUGUAUUUAGGUUAGCUAUUUAGCUUUACGUUCCAGGAUGCCUAGUGGCAGCCCCACAAUAUCCAGGAAGCCCUCUCUGCGGUUUUUCAGAUUAGGUAGUCGAAAAACCUAAGAAAUUUACCUGCUACAUUUCAAGAUAAA [CrPV IGR IRES WT] | NO
* AAAGCAAAAAUGUGAUCUUGCUUGUAAAUACAAUUUUGAGAGGUUAAUAAAUUACAAGUAGUGCUAUUUUUGUAUUUAGGUUAGCUAUUUAGCUUUACGUUCCAGGAUGCCUAGUGGCAGCCCGUGAAUAUCCAGGAAGCCCUCUCUGCGGUUUUUCAGAUUAGGUAGUCGAAAAACCUAAGAAAUUUACCUGCUACAUUUCAAGAUAAA [CrPV IGR IRES PK3_K/O] | YES
* GAGCGGUUUCUGGAAUACUAUAUGUAAGUAUAGUGUUCUGGAGGCAUCAUUCUAUGGUUACCCAUCAUUAGAGGAAAUUUCCAAUAAACUCUGGUGUAAGGCUUAGAGUGAUGGUCGAGGUGCCCUAUUUAGGGUGAGGAGCCUCGGUGGCAGCCCCACCAAAUCCUCUAUUGGAUAGGAACAGCUGUACUGGGCAGUUACAGCAGUCGUAUGGUAACACAUGCGGCGUUCCGAAAUACCAUGCCUGGCGAUUCACAACAAGAA [IAPV IGR IRES WT] | NO
* AAAGCAAAAAUGUGAUCUUGCUUGUAAAUACAAUUUUGAGAGGUUAAUAAAUUACAAGUAGUGCUAUUUUUGUAUUUAGGUUAGCUAUUUAGCUUUACGUUCCAGGAUGCCUAGUGGCAGCCGGUGAAUAUCCAGGAAGCGGAGAGUGCGGUUUUUCAGAUUAGGUAGUCGAAAAACCUAAGAAAUUUAGGUGCUACAUUUCAAGAUAAA [CrPV IGR IRES PK1+2+3_K/O] | YES
* GAGCGGUUUCUGGAAUACUAUAUGUAAGUAUAGUGUUCUGGAGGCAUCAUUCUAUGGUUACCCAUCAUUAGAGGAAAUUUCCAAUAAACUCUGGUGUAAGGCUUAGAGUGAUGGUCGAGGUGCCCUAUUUAGGGUGAGGAGCCUCGGUGGCAGCCCCUGGAAAUCCUCUAUUGGAUAGGAACAGCUGUACUGGGCAGUUACAGCAGUCGUAUGGUAACACAUGCGGCGUUCCGAAAUACCAUGCCUGGCGAUUCACAACAAGAA [IAPV IGR IRES PK3_K/O] | NO

Recorded values, source paper PMC9458429.
